Biological target: sigma-2 receptors (Homo sapiens)
Sequence (Q5BJF2 whole entry): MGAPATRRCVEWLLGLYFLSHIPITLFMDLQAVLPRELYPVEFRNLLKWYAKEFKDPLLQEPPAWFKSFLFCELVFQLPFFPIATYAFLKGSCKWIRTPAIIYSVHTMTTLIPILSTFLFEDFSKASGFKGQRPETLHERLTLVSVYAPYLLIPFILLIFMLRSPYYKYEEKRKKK
pKi: −log10 of the molar value.
OBSERVABLE: pKi

# MOLECULE, RECORDED MEASUREMENT
records = [
    ("CC(NCCC(c1ccccc1)c1ccccc1)c1ccccc1 (stereo not shown)", "6.07 to 6.14"),
]

====

Molecular target: sigma-1 (Homo sapiens)
Sequence (Q99720 whole entry): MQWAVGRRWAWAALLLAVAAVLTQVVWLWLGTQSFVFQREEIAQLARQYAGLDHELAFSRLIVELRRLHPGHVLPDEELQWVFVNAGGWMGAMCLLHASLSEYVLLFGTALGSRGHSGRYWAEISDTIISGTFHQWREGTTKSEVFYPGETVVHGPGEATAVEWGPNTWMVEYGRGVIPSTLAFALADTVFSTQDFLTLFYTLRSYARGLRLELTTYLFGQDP
Experiment: sigma-1 affinity
Type: binding
pKi: −log10 of the molar value.

# COMPOUND, TARGET UNDER TEST, pKi
measured = [
    ("CC(NCCC(c1ccccc1)c1ccccc1)c1ccccc1 (stereo not shown)", "sigma-1 (Homo sapiens)", "7.74 to 7.85"),
]
